These data points were gathered from patent US11053204B2.

Items are presented alongside their recorded Oat, Wild plant response rating.
tested on: oat, wild (wild oat Avena fatua); test: Test C postemergence, plant response rating; type: in vivo; details: 125 g ai/ha, scale 0 to 100 (0 no effect, 100 complete control)
measured.parameter: Oat, Wild plant response rating

# compound, system.tested, measured.parameter, quantitative.readout
data = [
    ("O=C(CCCC(F)(F)F)c1c(Br)cccc1Oc1ncc(Cl)cn1", "oat, wild (wild oat Avena fatua)", "Oat, Wild plant response rating", 15),
    ("N#CC(CCCC(F)(F)F)c1ccccc1Oc1ncc(Cl)cn1 (stereo not shown)", "oat, wild (wild oat Avena fatua)", "Oat, Wild plant response rating", 35),
    ("N#Cc1cccc(Oc2ncc(Cl)cn2)c1CCCC(F)(F)F", "oat, wild (wild oat Avena fatua)", "Oat, Wild plant response rating", 10),
    ("CCCCC(=O)c1c(Br)cccc1Oc1ncc(Cl)cn1", "oat, wild (wild oat Avena fatua)", "Oat, Wild plant response rating", 35),
    ("FC(F)(F)CCCCc1c(Cl)cccc1Oc1ncc(Cl)cn1", "oat, wild (wild oat Avena fatua)", "Oat, Wild plant response rating", 10),
    ("N#CCCOC(=O)c1c(Br)cccc1Oc1ncc(Cl)cn1", "oat, wild (wild oat Avena fatua)", "Oat, Wild plant response rating", 5),
    ("O=C(CCCC(F)(F)F)c1c(Oc2ncc(Cl)cn2)cccc1C(F)(F)F", "oat, wild (wild oat Avena fatua)", "Oat, Wild plant response rating", 15),
]

====

tested on: ragweed (common ragweed, Ambrosia elatior); test: Test C postemergence, plant response rating; type: in vivo; conditions: 31 g ai/ha, scale 0 to 100
// NB: equality with 40 counts as NO; only Plant response rating, Ragweed strictly below is YES

# molecule, classification
rows = [
    ("N#Cc1cccc(Oc2ncc(Cl)cn2)c1CCCC(F)(F)F", "NO"),
    ("CCCCC(=O)c1c(Br)cccc1Oc1ncc(Cl)cn1", "YES"),
    ("N#CC(CCCC(F)(F)F)c1ccccc1Oc1ncc(Cl)cn1 (stereo not shown)", "YES"),
    ("N#Cc1cccc(Oc2ncc(Cl)cn2)c1COCCC(F)(F)F", "YES"),
    ("O=C(CCCC(F)(F)F)c1c(Oc2ncc(Cl)cn2)cccc1C(F)(F)F", "YES"),
    ("CCCC(=O)c1c(Br)cccc1Oc1ncc(Cl)cn1", "YES"),
]

====

test system: sedge, umbrella (small-flower umbrella sedge, Cyperus difformis); assay: Test B flooded paddy test, plant response rating; format: in vivo; details: 250 g ai/ha; Flood; scale of 0 to 100 where 0 is no effect and 100 is complete control; 13 to 15 days

# mol, system.tested, Plant response rating, Sedge, Umbrella
measured = [
    ("CC(C)Oc1cccc(Oc2ncc(Cl)cn2)c1C(=O)OCCC(F)(F)F", "sedge, umbrella (small-flower umbrella sedge, Cyperus difformis)", 0),
    ("C=CCSC(=O)c1c(Br)cccc1Oc1ncc(Cl)cn1", "sedge, umbrella (small-flower umbrella sedge, Cyperus difformis)", 95),
    ("O=C(CCCC(F)(F)F)c1c(Oc2ncc(Cl)cn2)cccc1C(F)(F)F", "sedge, umbrella (small-flower umbrella sedge, Cyperus difformis)", 90),
    ("O=C(OC(CCl)CCl)c1c(Br)cccc1Oc1ncc(Cl)cn1", "sedge, umbrella (small-flower umbrella sedge, Cyperus difformis)", 0),
    ("CCCCc1c(C#N)cccc1Oc1ncc(Cl)cn1", "sedge, umbrella (small-flower umbrella sedge, Cyperus difformis)", 100),
    ("O=C(OC/C=C/C(F)(F)F)c1c(Br)cccc1Oc1ncc(Cl)cn1", "sedge, umbrella (small-flower umbrella sedge, Cyperus difformis)", 80),
    ("N#Cc1cccc(Oc2ncc(Cl)cn2)c1C(=O)CCCCC(F)(F)F", "sedge, umbrella (small-flower umbrella sedge, Cyperus difformis)", 0),
    ("N#Cc1ccc(Oc2ncc(Cl)cn2)c(C(=O)OCCC(F)(F)F)c1", "sedge, umbrella (small-flower umbrella sedge, Cyperus difformis)", 0),
    ("FC(F)(F)CCOCc1c(Br)cccc1Oc1ncc(Cl)cn1", "sedge, umbrella (small-flower umbrella sedge, Cyperus difformis)", 95),
]

====

test system: velvetleaf (Abutilon theophrasti); test: Test C preemergence, plant response rating; format: in vivo; settings: Preemergence; 31 g ai/ha; scale 0 to 100
Measured Plant response rating, Velvetleaf values are reported for all entries that follow.

# mol, Plant response rating, Velvetleaf
data = [
    ("O=C(CCCCC(F)(F)F)c1c(Br)cccc1Oc1ncc(Cl)cn1", 0),
    ("O=C(OCCC(F)(F)F)c1c(Br)cccc1Oc1ncc(Br)cn1", 30),
    ("N#Cc1cccc(Oc2ncc(Cl)cn2)c1COCCC(F)(F)F", 55),
    ("FC(F)(F)CCCCc1c(Br)cccc1Oc1ncc(Cl)cn1", 25),
    ("N#Cc1cccc(Oc2ncc(Cl)cn2)c1CCCC(F)(F)F", 60),
]

====

tested on: nutsedge, yellow (yellow nutsedge, Cyperus esculentus); test: Test C postemergence, plant response rating; assay type: in vivo; conditions: 16 g ai/ha, scale of 0 to 100
measured.parameter: Plant response rating, Nutsedge, Yellow

# mol, measured.parameter, quantitative.readout
rows = [
    ("N#Cc1cccc(Oc2ncc(Cl)cn2)c1COCCC(F)(F)F", "Plant response rating, Nutsedge, Yellow", 0),
    ("FC(F)(F)CCCCc1c(Cl)cccc1Oc1ncc(Cl)cn1", "Plant response rating, Nutsedge, Yellow", 0),
    ("CCCCC(=O)c1c(Oc2ncc(Cl)cn2)cccc1C(F)(F)F", "Plant response rating, Nutsedge, Yellow", 0),
    ("O=C(CCCC(F)(F)F)c1c(Oc2ncc(Cl)cn2)cccc1C(F)(F)F", "Plant response rating, Nutsedge, Yellow", 5),
    ("O=C(CCCCC(F)(F)F)c1c(Br)cccc1Oc1ncc(Cl)cn1", "Plant response rating, Nutsedge, Yellow", 10),
]

====

System: sedge, umbrella (small-flower umbrella sedge, Cyperus difformis)
Assay: Test B flooded paddy test, plant response rating
Assay type: in vivo
Conditions: 250 g ai/ha; Flood; scale of 0 to 100 where 0 is no effect and 100 is complete control; 13 to 15 days
Source text: At time of treatment, test pots were flooded to 3 cm above the soil surface, treated by application of test compounds directly to the paddy water, and then maintained at that water depth for the duration of the test. Treated plants and controls were maintained in a greenhouse for 13 to 15 days, after which time all species were compared to controls and visually evaluated. […] A dash (-) response means no test result.
The following molecules are shown together with reported Plant response rating, Sedge, Umbrella values.
measured.parameter: Plant response rating, Sedge, Umbrella

# mol, quantitative.readout
rows = [
    ("O=C(OCCC(F)(F)F)c1cc(Br)ccc1Oc1ncc(Cl)cn1", 0),
    ("N#Cc1cccc(Oc2ncc(Cl)cn2)c1COCC(F)(F)F", 90),
    ("O=C(OCC(F)(F)C(F)(F)F)c1c(F)cccc1Oc1ncc(Cl)cn1", 0),
    ("O=C(OCC(F)(F)C(F)(F)F)c1c(F)cccc1Oc1ncc(Br)cn1", 0),
    ("O=C(OCCCC(F)(F)F)c1c(Oc2ncc(Cl)cn2)cccc1C(F)(F)F", 85),
    ("FC(F)(F)CCCCc1c(Cl)cccc1Oc1ncc(Cl)cn1", 95),
    ("CN(CCC(F)(F)F)C(=O)c1c(Br)cccc1Oc1ncc(Cl)cn1", 0),
    ("O=C(CCCCC(F)(F)F)c1c(Br)cccc1Oc1ncc(Cl)cn1", 95),
    ("C=C(Cl)COC(=O)c1c(Br)cccc1Oc1ncc(Cl)cn1", 100),
]

====

tested on: corn (Zea mays); experiment: Test A postemergence, visual injury rating; type: in vivo; conditions: 31 g ai/ha, 0 to 100 scale, 0 is no effect, 100 is complete control, approximately 10 days
Measured Corn plant response rating, listed per entry for reference.
measured.parameter: Corn plant response rating

# compound, quantitative.readout
measured = [
    ("O=C(CCCC(F)(F)F)c1c(Br)cccc1Oc1ncc(Cl)cn1 [Compound 77]", 10),
    ("O=C(OCC(Cl)(Cl)Cl)c1c(Br)cccc1Oc1ncc(Cl)cn1 [Compound 45]", 0),
    ("Cc1cccc(Oc2ncc(Cl)cn2)c1C(=O)OCCC(F)(F)F [Compound 99]", 0),
    ("CCCSC(=O)c1c(Br)cccc1Oc1ncc(Cl)cn1 [Compound 70]", 10),
    ("C=C(Cl)COC(=O)c1c(Br)cccc1Oc1ncc(Cl)cn1 [Compound 2]", 10),
    ("O=C(OCCCl)c1c(Br)cccc1Oc1ncc(Cl)cn1 [Compound 46]", 0),
    ("O=C(OCCC(F)(F)F)c1cc(C(F)(F)F)ccc1Oc1ncc(Cl)cn1 [Compound 53]", 0),
    ("O=C(CCC(F)(F)F)c1c(Br)cccc1Oc1ncc(Cl)cn1 [Compound 92]", 10),
    ("O=C(SCCC(F)(F)F)c1c(Br)cccc1Oc1ncc(Cl)cn1 [Compound 71]", 10),
    ("CC(=NOC(C)C)c1c(Br)cccc1Oc1ncc(Cl)cn1 [Compound 105]", 0),
    ("O=C(OC(CCl)CCl)c1c(Br)cccc1Oc1ncc(Cl)cn1 [Compound 36]", 0),
    ("COc1cccc(Oc2ncc(Cl)cn2)c1C(=O)OCCC(F)(F)F [Compound 112]", 0),
    ("O=C(CCC(F)(F)F)c1c(Cl)cccc1Oc1ncc(Cl)cn1 [Compound 107]", 30),
    ("CC(C)(C)OC(=O)c1c(F)cccc1Oc1ncc(Cl)cn1 [Compound 43]", 0),
    ("CC(=NOC(C)C)c1c(F)cccc1Oc1ncc(Cl)cn1 [Compound 76]", 0),
    ("C#CCCOC(=O)c1c(Br)cccc1Oc1ncc(Cl)cn1 [Compound 38]", 0),
    ("O=C(OCCC1CC1)c1c(Br)cccc1Oc1ncc(Cl)cn1 [Compound 123]", 10),
    ("CC(=NOC(C)C)c1c(Cl)cccc1Oc1ncc(Cl)cn1 [Compound 104]", 0),
    ("CCCCOC(=O)c1c(Br)cccc1Oc1ncc(Cl)cn1 [Compound 100]", 10),
    ("O=C(OCC(F)(F)C(F)(F)F)c1c(F)cccc1Oc1ncc(Br)cn1 [Compound 4]", 0),
    ("CN(CCCC(F)(F)F)c1c(C#N)cccc1Oc1ncc(Cl)cn1 [Compound 126]", 0),
]
